Where do these numbers come from? They come from patent US20250195464A1.

# Tested on: mNG-SARS-CoV-2
# ASSAY_EXPLANATION: microbe, parasite or virus in culture
# ASSAY_SETUP: Severe acute respiratory syndrome coronavirus 2, Calu-3, read-out: EC50, secondary screening of hits
pEC50: −log10 of the molar value.

COMPOUND_SMILES	pEC50
CC(=O)O[C@]1(C)C[C@@H](/C=C(\C)CCC=C(C)C)O[C@@]2(C=C(CO)[C@H]3CC(=O)C(C)=C[C@H]3O2)C1	7.10

---

# Test system: SARS-CoV-2 Omicron BA.1
# ASSAY_EXPLANATION: microbe, parasite or virus in culture
# Format: cell-based
# ASSAY_SETUP: Severe acute respiratory syndrome coronavirus 2; Calu-3 cells, nucleocapsid marker; read-out: Nucleocapsid (EC50), Omicron BA.1

COMPOUND_SMILES	UNIT_TAG	EC50
CC(=O)O[C@]1(C)C[C@@H](/C=C(\C)CCC=C(C)C)O[C@@]2(C=C(CO)[C@H]3CC(=O)C(C)=C[C@H]3O2)C1	nM	700

---

# CC50 at 48 h per entry
# ASSAY_EXPLANATION: Cytotoxicity assay, PrestoBlue cell viability
# Format: cell-based
# ASSAY_SETUP: human; concentration required to reduce cell viability by 50%, Calu-3 cells, 48-hr incubation

COMPOUND	CC50 at 48 h
CC(=O)O[C@]1(C)C[C@@H](/C=C(\C)CCC=C(C)C)O[C@@]2(C=C(CO)[C@H]3CC(=O)C(C)=C[C@H]3O2)C1 [Alotaketal C]	≥ 100 µM
CCCCCCCC[C@@H]1CCC[C@]2(C=C(CO)[C@H]3CC(=O)C(C)=C[C@H]3O2)O1 [Compound I10-Oct]	≥ 101 µM
CCCCCCCCCC[C@@H]1CCC[C@]2(C=C(CO)[C@H]3CC(=O)C(C)=C[C@H]3O2)O1 [Compound I10-Dec02]	74.3 µM
CC(C)=CCC(C)CCCC1CCC[C@]2(C=C(CO)[C@H]3CC(=O)C(C)=C[C@H]3O2)O1 (stereo in doubt) [Compound I10-Cit3]	≥ 100 µM
CC(C)=CCC(C)CCCC1CCC[C@]2(C=C(CO)[C@H]3CC(=O)C(C)=C[C@H]3O2)O1 (stereo in doubt) [Compound I10-Cit4]	≥ 12700 µM
CCCCCCCCCCCC[C@@H]1CCC[C@]2(C=C(CO)[C@H]3CC(=O)C(C)=C[C@H]3O2)O1 [Compound I10-DD2]	≥ 113 µM
CC1=C[C@H]2O[C@]3(C=C(CO)[C@H]2CC1=O)CCCCO3 [Compound I10-H]	≥ 100 µM
CCCCCCCCCC[C@H]1CCC[C@]2(C=C(CO)[C@H]3CC(=O)C(C)=C[C@H]3O2)O1 [Compound I10-Dec01]	≥ 339 µM
